- Test system: K-562 leukemia
- experiment-notes: NCI tumour cell line growth inhibition, 48 h
reported-metric: TGI

Please fill in: TGI reported for `Clc1ccc(-c2cn(-c3ccccc3)c(-c3ccccc3)n2)c(Cl)c1` = > 50 µM

Please fill in: TGI reported for `O=C1/C(=C2\SCC(=O)N2c2ccccc2)SC(=S)N1c1ccccc1` = > 100 µM

Please fill in: TGI reported for `Cc1[nH]nc(C(=O)Nc2n[nH]c3ccccc23)c1[N+](=O)[O-]` = > 100 µM

---

- Test system: IGROV1 ovarian
- experiment-notes: NCI tumour cell line growth inhibition, 48 h
reported-metric: GI50

Please fill in: GI50 reported for `Nc1c(O)c(S(=O)(=O)O)c(O)c2c1C(=O)c1ccccc1C2=O` = 3.29 µM

Please fill in: GI50 reported for `CCCCc1nc2cc(/C=C/C(=O)NO)ccc2n1CCN(CC)CC` = 0.733 µM

Please fill in: GI50 reported for `Cc1ccc(-n2c(-c3ccc(Cl)cc3)cs/c2=N\NC(=O)COc2n[nH]c(=O)c3ccccc23)cc1` = > 100 µM

---

- Test system: SK-MEL-5 melanoma
- experiment-notes: NCI tumour cell line growth inhibition, 48 h; in the data active = GI50 below about 0.43 µM; inactive = the rest
Please state which outcome applies, choosing from active, inactive

Hi, sorry to bother you, what did the test record for COC(=O)[C@H](Cc1ccccc1)NC(=O)[C@@H](OC)[C@@H]1Cc2cc3cc(OC4CC(OC5CC(O)C(O)C(C)O5)C(O)C(C)O4)c(C)c(O)c3c(O)c2C(=O)[C@H]1OC1CC(OC2CC(OC3CC(C)(O)C(O)C(C)O3)C(O)C(C)O2)C(O)C(C)O1 (stereo partly specified) ? active

Hi, sorry to bother you, what did the test record for `CCOC(=O)c1cnc2c(cnn2CC)c1NN=C(C)C` ? inactive

Hi, sorry to bother you, what did the test record for `COc1ccc2sc3c(NCCCNCCO)nc4ccccc4c3c(=O)c2c1` ? inactive

Hi, sorry to bother you, what did the test record for `Cc1[nH]nc(C(=O)Nc2n[nH]c3ccccc23)c1[N+](=O)[O-]` ? inactive

Hi, sorry to bother you, what did the test record for `COc1ccc(-c2nn(-c3cccc(NC(=O)Nc4cccc(C(F)(F)F)c4)c3)cc2-c2ccncc2)cc1Cl` ? inactive

Hi, sorry to bother you, what did the test record for COc1cccc(C2C(C#N)=C(N)Oc3cc(OC)ccc32)c1 (stereo unspecified) ? active

---

- System: MOLT-4 leukemia
- experiment-notes: NCI tumour cell line growth inhibition, 48 h
Assign condition met whenever TGI does not fall below 20 µM; assign condition not met whenever it does.

Check this molecule for TGI at or above 20 µM: `Cn1c(=O)c2[nH]c(-n3nc(-c4ccccc4)cc3N)nc2n(C)c1=O` condition met

Check this molecule for TGI at or above 20 µM: COC1=CCC2=C(CCN(C(=O)C3CCC3)C2Cc2ccc(OC)c(O)c2)C1 (stereo not given) condition met

Check this molecule for TGI at or above 20 µM: `COc1ccc(Cn2cc(Cn3c(=O)c(-c4nc5ccccc5[nH]4)cc4ccccc43)nn2)c(OC)c1OC` condition met

Check this molecule for TGI at or above 20 µM: `COc1ccc(S(=O)(=O)N/N=C(\C)CN2C(=O)c3ccccc3C2=O)cc1` condition met

Check this molecule for TGI at or above 20 µM: `C=CCNC(=S)OCCCCCCCCCC` condition met

Check this molecule for TGI at or above 20 µM: `O=C(Nc1ccccc1F)c1ccc(NC2=C(Cl)C(=O)N(Cc3ccccc3)C2=O)cc1` condition not met

Check this molecule for TGI at or above 20 µM: `COc1cc2c3c(n(C)c(=O)c2cc1OC)-c1cc2c(cc1/C3=C\[C@@H](N)CCCCN)OCO2` condition not met

Check this molecule for TGI at or above 20 µM: `O=C(CC(=O)c1ccccc1NC1=Cc2ccccc2C(=O)C1=O)C(=O)NC1=C(Cl)C(=O)c2ccccc2C1=O` condition not met

Check this molecule for TGI at or above 20 µM: `COc1ccc(-c2nn(-c3cccc(NC(=O)Nc4cccc(C(F)(F)F)c4)c3)cc2-c2ccncc2)cc1Cl` condition not met
